FYI, the data here is from patent US11904051B2.

# METHOD NOTES: Dynamic light scattering of liposome formulations before and after SANS heating cycles
# Type: physicochemical
# TEST CONDITIONS: after the SANS experiments (n = 3)
PROPERTY LABEL: PDI, After heating
Reply: number alone, nothing else.

Take a look at these entries with their results.
CCCCCCCCCCCCCCCC(=O)OC[C@H](COP(=O)([O-])OCC[N+](C)(C)C)OC(=O)CCCCCCCCCCCCCCC [DPPC] | 0.33
CCCCCCCCCCCCCCCCCC(=O)NCC(CNC(=O)CCCCCCCCCCCCCCCCC)OP(=O)([O-])OCC[N+](C)(C)C [Sad-PC-Sad, 1,3-distearamidopropan-2-phosphocholine] | 0.20
CCCCCCCCCCCCCCCC(=O)OCC(COC(=O)CCCCCCCCCCCCCCC)OP(=O)([O-])OCC[N+](C)(C)C [Pes-PC-Pes] | 0.92
CCCCCCCCCCCCCCCC(=O)NCC(CNC(=O)CCCCCCCCCCCCCCC)OP(=O)([O-])OCC[N+](C)(C)C [Pad-PC-Pad] | 0.33

Just so you know, measured PDI, After heating for CCCCCCCCCCCCCCCCC(=O)NCC(CNC(=O)CCCCCCCCCCCCCCCC)OP(=O)([O-])OCC[N+](C)(C)C [Rad-PC-Rad] came out at 0.32

###

# METHOD NOTES: Small-angle neutron scattering (SANS) of liposomes as a function of temperature
# Format: physicochemical
# TEST CONDITIONS: 22 ° C.
Binarize most probable bilayer thickness at 5 nm; below is yes (1), at or above is no (0).

Below, 4 compounds whose answers are already recorded.
CCCCCCCCCCCCCCCC(=O)OCC(COC(=O)CCCCCCCCCCCCCCC)OP(=O)([O-])OCC[N+](C)(C)C | yes (1)
CCCCCCCCCCCCCCCCC(=O)NCC(CNC(=O)CCCCCCCCCCCCCCCC)OP(=O)([O-])OCC[N+](C)(C)C | yes (1)
CCCCCCCCCCCCCCCCCC(=O)NCC(CNC(=O)CCCCCCCCCCCCCCCCC)OP(=O)([O-])OCC[N+](C)(C)C | yes (1)
CCCCCCCCCCCCCCCC(=O)OC[C@H](COP(=O)([O-])OCC[N+](C)(C)C)OC(=O)CCCCCCCCCCCCCCC | yes (1)

With those in mind, consider the next compound.
Could you please tell me whether most probable bilayer thickness recorded for `CCCCCCCCCCCCCCCC(=O)NC[C@H](COP(=O)([O-])OCC[N+](C)(C)C)NC(=O)CCCCCCCCCCCCCCC` is less than 5 nm?
no (0)

###

# METHOD NOTES: Small-angle neutron scattering (SANS) of liposomes as a function of temperature
# Assay type: physicochemical
# TEST CONDITIONS: 32 ° C.
Property: most probable bilayer thickness; scope: individual compounds
Please respond with the number in nm and leave the unit unwritten.

// worked examples, most probable bilayer thickness included
CCCCCCCCCCCCCCCC(=O)OCC(COC(=O)CCCCCCCCCCCCCCC)OP(=O)([O-])OCC[N+](C)(C)C | 4.42
CCCCCCCCCCCCCCCCCC(=O)NCC(CNC(=O)CCCCCCCCCCCCCCCCC)OP(=O)([O-])OCC[N+](C)(C)C | 3.49
CCCCCCCCCCCCCCCC(=O)NC[C@H](COP(=O)([O-])OCC[N+](C)(C)C)NC(=O)CCCCCCCCCCCCCCC | 5.52
CCCCCCCCCCCCCCCC(=O)OC[C@H](COP(=O)([O-])OCC[N+](C)(C)C)OC(=O)CCCCCCCCCCCCCCC | 4.61

Lab note: next compound to report on.
The value of most probable bilayer thickness measured for the compound `CCCCCCCCCCCCCCCCC(=O)NCC(CNC(=O)CCCCCCCCCCCCCCCC)OP(=O)([O-])OCC[N+](C)(C)C` turned out to be 4.51

###

# METHOD NOTES: Small-angle neutron scattering (SANS) of liposomes as a function of temperature
# Type: physicochemical
# TEST CONDITIONS: 22 ° C. (after cooling down to room temperature)
Label label 0 if most probable bilayer thickness falls below 5 nm; label label 1 in every other case.

CCCCCCCCCCCCCCCC(=O)NC[C@H](COP(=O)([O-])OCC[N+](C)(C)C)NC(=O)CCCCCCCCCCCCCCC [Pad-Pad-PC] | label 1
CCCCCCCCCCCCCCCCCC(=O)NCC(CNC(=O)CCCCCCCCCCCCCCCCC)OP(=O)([O-])OCC[N+](C)(C)C [Sad-PC-Sad, 1,3-distearamidopropan-2-phosphocholine] | label 0
CCCCCCCCCCCCCCCC(=O)OC[C@H](COP(=O)([O-])OCC[N+](C)(C)C)OC(=O)CCCCCCCCCCCCCCC [DPPC] | label 0
CCCCCCCCCCCCCCCC(=O)OCC(COC(=O)CCCCCCCCCCCCCCC)OP(=O)([O-])OCC[N+](C)(C)C [Pes-PC-Pes] | label 0

Decide: is the reported value of most probable bilayer thickness for CCCCCCCCCCCCCCCCC(=O)NCC(CNC(=O)CCCCCCCCCCCCCCCC)OP(=O)([O-])OCC[N+](C)(C)C [Rad-PC-Rad] equal to or greater than 5 nm?
label 0

###

Measured Release 37° C. after 60 s vortex accompanies every entry in the list below.
# METHOD NOTES: Release experiments with 5(6)-carboxyfluorescein-loaded large unilamellar vesicles (LUVET100), spontaneous and vortex-triggered
# Assay type: physicochemical
# TEST CONDITIONS: mechanically induced release, 37° C., 60 s vortexing
State just the number; it will be interpreted in %.

CCCCCCCCCCCCCCCC(=O)OC[C@H](COP(=O)([O-])OCC[N+](C)(C)C)OC(=O)CCCCCCCCCCCCCCC | 17.9

Notebook: `CCCCCCCCCCCCCCCCCC(=O)NCC(CNC(=O)CCCCCCCCCCCCCCCCC)OP(=O)([O-])OCC[N+](C)(C)C` , Release 37° C. after 60 s vortex read as 40.2

Noted for `CCCCCCCCCCCCCCCC(=O)NCC(CNC(=O)CCCCCCCCCCCCCCC)OP(=O)([O-])OCC[N+](C)(C)C` : its Release 37° C. after 60 s vortex reads 100

Release 37° C. after 60 s vortex for `CCCCCCCCCCCCCCCCC(=O)NCC(CNC(=O)CCCCCCCCCCCCCCCC)OP(=O)([O-])OCC[N+](C)(C)C` is 34

###

# METHOD NOTES: Dynamic light scattering of liposome formulations before and after SANS heating cycles
# Format: physicochemical
PROPERTY LABEL: DLS most probable / dominant or smaller population size

CCCCCCCCCCCCCCCCC(=O)NCC(CNC(=O)CCCCCCCCCCCCCCCC)OP(=O)([O-])OCC[N+](C)(C)C | about 150 nm
CCCCCCCCCCCCCCCCCC(=O)NCC(CNC(=O)CCCCCCCCCCCCCCCCC)OP(=O)([O-])OCC[N+](C)(C)C | 160 nm
CCCCCCCCCCCCCCCC(=O)NC[C@H](COP(=O)([O-])OCC[N+](C)(C)C)NC(=O)CCCCCCCCCCCCCCC | about 150 nm
